Target: UniProt:P47745
Sequence (P47745 whole entry): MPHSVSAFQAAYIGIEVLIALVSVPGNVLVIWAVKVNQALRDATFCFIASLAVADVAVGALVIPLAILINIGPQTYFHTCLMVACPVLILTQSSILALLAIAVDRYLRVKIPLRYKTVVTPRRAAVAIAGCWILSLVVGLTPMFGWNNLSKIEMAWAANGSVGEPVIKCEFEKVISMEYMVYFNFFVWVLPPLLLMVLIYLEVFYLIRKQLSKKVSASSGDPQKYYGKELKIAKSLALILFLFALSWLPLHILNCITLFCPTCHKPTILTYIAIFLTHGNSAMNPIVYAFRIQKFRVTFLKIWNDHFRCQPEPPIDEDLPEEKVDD
Assay: Tested for adenosine A1 receptor agonistic activity by determining concentration needed to prolong the stimulus-QRS interval by 50% of the maximum response
Assay type: functional
pEC50: −log10 of the molar value.
Could you label it Fulfilled if measured pEC50 is 5 or higher, and Not fulfilled otherwise?

Answered cases to consult:
-- ask pEC50 >= 5 for C/C(=N\Nc1nc(N)c2ncn(C3O[C@H](CO)[C@@H](O)[C@H]3O)c2n1)c1ccc(F)cc1 (stereo not given in full) ?
-- reply Fulfilled

-- ask Repeat with Nc1nc(N/N=C/c2ccc(CCC(=O)O)cc2)nc2c1ncn2C1O[C@H](CO)[C@@H](O)[C@H]1O (stereo not given in full)
-- reply Not fulfilled

-- ask Repeat with Nc1nc(N/N=C/c2ccccn2)nc2c1ncn2C1O[C@H](CO)[C@@H](O)[C@H]1O (stereo not given in full)
-- reply Not fulfilled

Could you now look at the following compound, please?
-- ask pEC50 >= 5 for CC(C)(C)OC(=O)CCc1ccc(CCNc2nc(N)c3ncn(C4O[C@H](CO)[C@@H](O)[C@H]4O)c3n2)cc1 (stereo not given in full) ?
-- reply Not fulfilled

Data origin, for the record: ChEMBL document CHEMBL1126102
